Data export: Ki values recorded with Sodium-dependent serotonin transporter (Rattus norvegicus, UniProt P31652).
Sequence (P31652 whole entry): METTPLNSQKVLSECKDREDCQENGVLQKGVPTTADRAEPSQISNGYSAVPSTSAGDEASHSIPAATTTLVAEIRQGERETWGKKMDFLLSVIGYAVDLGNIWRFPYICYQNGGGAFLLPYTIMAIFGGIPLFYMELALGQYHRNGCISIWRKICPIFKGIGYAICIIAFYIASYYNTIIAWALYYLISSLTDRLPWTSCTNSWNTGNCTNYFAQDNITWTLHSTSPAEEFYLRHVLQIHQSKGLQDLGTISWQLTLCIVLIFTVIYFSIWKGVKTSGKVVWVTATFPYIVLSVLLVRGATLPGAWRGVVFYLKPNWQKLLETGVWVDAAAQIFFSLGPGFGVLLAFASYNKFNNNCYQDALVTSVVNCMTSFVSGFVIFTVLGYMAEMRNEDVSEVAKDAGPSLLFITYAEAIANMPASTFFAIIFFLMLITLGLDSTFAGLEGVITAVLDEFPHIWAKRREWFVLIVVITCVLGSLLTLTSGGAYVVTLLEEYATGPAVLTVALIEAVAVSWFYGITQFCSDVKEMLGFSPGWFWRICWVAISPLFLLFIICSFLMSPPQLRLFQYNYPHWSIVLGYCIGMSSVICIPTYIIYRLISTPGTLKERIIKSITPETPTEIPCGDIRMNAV
Write the figure, then the unit, nothing else.

INSERT INTO measurements (compound, target_under_test, assay_readout, assay_result) VALUES
  ('OC1CCCCCC1CN1CCN(CCOC(c2ccccc2)c2ccccc2)CC1 (stereo not given)', 'Sodium-dependent serotonin transporter (Rattus norvegicus, UniProt P31652)', 'Ki', '3900 nM'),
  ('O=C1c2ccccc2CCC1CN1CCN(CCOC(c2ccccc2)c2ccccc2)CC1 (stereo not given)', 'Sodium-dependent serotonin transporter (Rattus norvegicus, UniProt P31652)', 'Ki', '1050 nM'),
  ('COc1ccc2c(c1)CCC(CN1CCN(CCOC(c3ccccc3)c3ccccc3)CC1)=C2', 'Sodium-dependent serotonin transporter (Rattus norvegicus, UniProt P31652)', 'Ki', '530 nM');

Need Ki, item OC1CCCCC1CN1CCN(CCOC(c2ccccc2)c2ccccc2)CC1 (stereo not given)
3300 nM

How about this compound: C1=C(CN2CCN(CCOC(c3ccccc3)c3ccccc3)CC2)CCc2ccccc21
1360 nM

###

Data export: pKi values recorded with Sodium-dependent dopamine transporter (Rattus norvegicus).
Scale explanation: pKi corresponds to minus log10 of a concentration expressed in moles per litre.

Consider the worked cases shown below.
INSERT INTO results (molecule, assay_readout, assay_result) VALUES
  ('O=C1c2ccccc2CCC1CN1CCN(CCOC(c2ccc(F)cc2)c2ccc(F)cc2)CC1 (stereo not given)', 'pKi', 7.24),
  ('COc1ccc2c(c1)CCC(CN1CCN(CCOC(c3ccccc3)c3ccccc3)CC1)=C2', 'pKi', 7.41),
  ('O=C(CCN1CCN(CCOC(c2ccc(F)cc2)c2ccc(F)cc2)CC1)c1ccco1', 'pKi', 7.14),
  ('O=C(CCN1CCN(CCOC(c2ccc(F)cc2)c2ccc(F)cc2)CC1)c1cccs1', 'pKi', 7.08);

Need pKi, item O=C1CCCC1CN1CCN(CCOC(c2ccc(F)cc2)c2ccc(F)cc2)CC1 (stereo not given)
7.08

How about this molecule: O=C(CCN1CCN(CCOC(c2ccc(F)cc2)c2ccc(F)cc2)CC1)c1cccc(F)c1
7.05

How about this molecule: OC(CCN1CCN(CCOC(c2ccc(F)cc2)c2ccc(F)cc2)CC1)c1cccs1 (stereo not given)
8.14

How about this molecule: OC(CCN1CCN(CCOC(c2ccc(F)cc2)c2ccc(F)cc2)CC1)c1ccco1 (stereo not given)
8.00

How about this molecule: O=C(CCN1CCN(CCOC(c2ccc(F)cc2)c2ccc(F)cc2)CC1)c1ccc(Br)cc1
7.43

How about this molecule: OC1CCCCC1CN1CCN(CCOC(c2ccc(F)cc2)c2ccc(F)cc2)CC1 (stereo not given)
7.43

###

target: Sodium-dependent dopamine transporter (Rattus norvegicus)
ASSAY READOUT: Ki (nM)
The reply should contain only the number, in nM.

Consider the worked cases shown below.
INSERT INTO measurements (compound, assay_readout, endpoint_unit, assay_result) VALUES
  ('OC(CCN1CCN(CCOC(c2ccccc2)c2ccccc2)CC1)c1ccc(Br)cc1 (stereo not drawn)', 'Ki', 'nM', 7.5),
  ('COc1ccc2c(c1)CC[C@@H](CN1CCN(CCOC(c3ccccc3)c3ccccc3)CC1)[C@H]2O', 'Ki', 'nM', 32),
  ('OC1CCCCCC1CN1CCN(CCOC(c2ccccc2)c2ccccc2)CC1 (stereo not drawn)', 'Ki', 'nM', 210),
  ('O=C(CCN1CCN(CCOC(c2ccccc2)c2ccccc2)CC1)c1cccc(F)c1', 'Ki', 'nM', 260),
  ('COc1ccc2c(c1)CC[C@@H](CN1CCN(CCOC(c3ccc(F)cc3)c3ccc(F)cc3)CC1)[C@@H]2O', 'Ki', 'nM', 18),
  ('C1=C(CN2CCN(CCOC(c3ccccc3)c3ccccc3)CC2)CCc2ccccc21', 'Ki', 'nM', 38),
  ('OC(CCN1CCN(CCOC(c2ccccc2)c2ccccc2)CC1)c1cccc(F)c1 (stereo not drawn)', 'Ki', 'nM', 4.1);

Need Ki, item COc1ccc2c(c1)CC[C@@H](CN1CCN(CCOC(c3ccc(F)cc3)c3ccc(F)cc3)CC1)[C@H]2O
7.3

###

target: Sodium-dependent serotonin transporter (Rattus norvegicus, UniProt P31652); experiment: Binding affinity towards rat serotonin transporter (SERT)
ASSAY READOUT: Ki (µM)
The reply should contain only the number, in µM.

Consider the worked cases shown below.
INSERT INTO assay_data (molecule, assay_readout, assay_result) VALUES
  ('O=C1CCCCCC1CN1CCN(CCOC(c2ccc(F)cc2)c2ccc(F)cc2)CC1 (centres undefined)', 'Ki', 0.53),
  ('OC1CCCCC1CN1CCN(CCOC(c2ccc(F)cc2)c2ccc(F)cc2)CC1 (centres undefined)', 'Ki', 0.58);

Need Ki, item O=C(CCN1CCN(CCOC(c2ccc(F)cc2)c2ccc(F)cc2)CC1)c1cccs1
0.11

How about this molecule: O=C1CCCCC1CN1CCN(CCOC(c2ccc(F)cc2)c2ccc(F)cc2)CC1 (centres undefined)
1.13

How about this molecule: O=C1CCCCCC1CN1CCN(CCOC(c2ccccc2)c2ccccc2)CC1 (centres undefined)
4.1

How about this molecule: COc1ccc2c(c1)CC[C@@H](CN1CCN(CCOC(c3ccc(F)cc3)c3ccc(F)cc3)CC1)[C@@H]2O
0.003

How about this molecule: OC1CCCC1CN1CCN(CCOC(c2ccc(F)cc2)c2ccc(F)cc2)CC1 (centres undefined)
0.92

###

molecular target: Sodium-dependent dopamine transporter (Rattus norvegicus, UniProt P23977); assay: Binding affinity towards dopamine transporter (DAT)
Sequence (P23977 whole entry): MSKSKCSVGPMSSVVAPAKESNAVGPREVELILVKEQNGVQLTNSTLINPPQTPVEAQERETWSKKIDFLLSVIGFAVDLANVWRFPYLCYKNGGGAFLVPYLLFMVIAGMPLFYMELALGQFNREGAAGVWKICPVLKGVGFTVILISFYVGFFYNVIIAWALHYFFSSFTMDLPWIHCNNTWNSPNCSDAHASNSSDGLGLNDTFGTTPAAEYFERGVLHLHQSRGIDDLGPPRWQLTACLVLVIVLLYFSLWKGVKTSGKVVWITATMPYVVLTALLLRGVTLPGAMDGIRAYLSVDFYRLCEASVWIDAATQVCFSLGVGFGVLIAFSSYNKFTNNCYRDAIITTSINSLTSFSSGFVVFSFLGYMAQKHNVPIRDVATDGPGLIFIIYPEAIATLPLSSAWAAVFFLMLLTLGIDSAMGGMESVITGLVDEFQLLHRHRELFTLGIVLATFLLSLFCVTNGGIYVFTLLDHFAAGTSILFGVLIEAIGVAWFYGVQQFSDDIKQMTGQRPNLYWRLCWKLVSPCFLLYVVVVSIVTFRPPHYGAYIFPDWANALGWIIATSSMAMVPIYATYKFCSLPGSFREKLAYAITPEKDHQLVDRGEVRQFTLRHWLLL
pKi: −log10 of the molar value.
Threshold rule: pKi greater than or equal to 7 is yes (1); below that, no (0).

INSERT INTO measurements (molecule, category_label) VALUES
  ('O[C@H]1c2ccccc2CC[C@H]1CN1CCN(CCOC(c2ccccc2)c2ccccc2)CC1', 'yes (1)'),
  ('O[C@@H]1c2ccccc2CC[C@H]1CN1CCN(CCOC(c2ccc(F)cc2)c2ccc(F)cc2)CC1', 'yes (1)'),
  ('O=C1CCCCCC1CN1CCN(CCOC(c2ccccc2)c2ccccc2)CC1 (stereo not given)', 'no (0)'),
  ('OC1CCCC1CN1CCN(CCOC(c2ccccc2)c2ccccc2)CC1 (stereo not given)', 'no (0)');

# bool: pKi of OC(CCN1CCN(CCOC(c2ccc(F)cc2)c2ccc(F)cc2)CC1)c1cccc(F)c1 (stereo not given) >= 7
yes (1)

###

Data export: pKi values recorded with Sodium-dependent dopamine transporter (Rattus norvegicus, UniProt P23977).
Scale explanation: pKi corresponds to minus log10 of a concentration expressed in moles per litre.

Consider the worked cases shown below.
INSERT INTO measurements (molecule, target_under_test, assay_readout, assay_result) VALUES
  ('COc1ccc2c(c1)CCC(CN1CCN(CCOC(c3ccc(F)cc3)c3ccc(F)cc3)CC1)C2=O (stereo not given)', 'Sodium-dependent dopamine transporter (Rattus norvegicus, UniProt P23977)', 'pKi', 7.66),
  ('OC(CCN1CCN(CCOC(c2ccccc2)c2ccccc2)CC1)c1ccco1 (stereo not given)', 'Sodium-dependent dopamine transporter (Rattus norvegicus, UniProt P23977)', 'pKi', 7.72);

Need pKi, item OC(CCN1CCN(CCOC(c2ccccc2)c2ccccc2)CC1)c1cccs1 (stereo not given)
7.82

How about this molecule: OC(CCN1CCN(CCOC(c2ccc(F)cc2)c2ccc(F)cc2)CC1)c1ccc(Br)cc1 (stereo not given)
8.60

How about this molecule: O=C(CCN1CCN(CCOC(c2ccccc2)c2ccccc2)CC1)c1cccs1
6.72

###

target: Sodium-dependent serotonin transporter (Rattus norvegicus); assay: Binding affinity towards rat serotonin transporter (SERT)
ASSAY READOUT: Ki (nM)
The reply should contain only the number, in nM.

Consider the worked cases shown below.
INSERT INTO measurements (compound, assay_readout, assay_result) VALUES
  ('O=C(CCN1CCN(CCOC(c2ccccc2)c2ccccc2)CC1)c1ccco1', 'Ki', 3300),
  ('O=C1CCCC1CN1CCN(CCOC(c2ccccc2)c2ccccc2)CC1 (configuration not stated)', 'Ki', 5700),
  ('Fc1ccc(C(OCCN2CCN(CC3=Cc4ccccc4CC3)CC2)c2ccc(F)cc2)cc1', 'Ki', 260),
  ('OC(CCN1CCN(CCOC(c2ccccc2)c2ccccc2)CC1)c1ccco1 (configuration not stated)', 'Ki', 1940);

Need Ki, item OC(CCN1CCN(CCOC(c2ccc(F)cc2)c2ccc(F)cc2)CC1)c1ccc(Br)cc1 (configuration not stated)
50

How about this compound: O=C(CCN1CCN(CCOC(c2ccc(F)cc2)c2ccc(F)cc2)CC1)c1ccc(Br)cc1
480

How about this compound: OC(CCN1CCN(CCOC(c2ccccc2)c2ccccc2)CC1)c1ccc(Br)cc1 (configuration not stated)
340

How about this compound: COc1ccc2c(c1)CC[C@@H](CN1CCN(CCOC(c3ccc(F)cc3)c3ccc(F)cc3)CC1)[C@H]2O
3

How about this compound: O=C(CCN1CCN(CCOC(c2ccc(F)cc2)c2ccc(F)cc2)CC1)c1cccc(F)c1
220

How about this compound: O=C1c2ccccc2CCC1CN1CCN(CCOC(c2ccc(F)cc2)c2ccc(F)cc2)CC1 (configuration not stated)
110
